Can you tell me IC50 for the items I'm about to list?
# study-target: DNA polymerase catalytic subunit (Human cytomegalovirus (strain AD169) (HHV-5) (Human herpesvirus 5), UniProt P08546)
# Sequence (P08546 whole entry): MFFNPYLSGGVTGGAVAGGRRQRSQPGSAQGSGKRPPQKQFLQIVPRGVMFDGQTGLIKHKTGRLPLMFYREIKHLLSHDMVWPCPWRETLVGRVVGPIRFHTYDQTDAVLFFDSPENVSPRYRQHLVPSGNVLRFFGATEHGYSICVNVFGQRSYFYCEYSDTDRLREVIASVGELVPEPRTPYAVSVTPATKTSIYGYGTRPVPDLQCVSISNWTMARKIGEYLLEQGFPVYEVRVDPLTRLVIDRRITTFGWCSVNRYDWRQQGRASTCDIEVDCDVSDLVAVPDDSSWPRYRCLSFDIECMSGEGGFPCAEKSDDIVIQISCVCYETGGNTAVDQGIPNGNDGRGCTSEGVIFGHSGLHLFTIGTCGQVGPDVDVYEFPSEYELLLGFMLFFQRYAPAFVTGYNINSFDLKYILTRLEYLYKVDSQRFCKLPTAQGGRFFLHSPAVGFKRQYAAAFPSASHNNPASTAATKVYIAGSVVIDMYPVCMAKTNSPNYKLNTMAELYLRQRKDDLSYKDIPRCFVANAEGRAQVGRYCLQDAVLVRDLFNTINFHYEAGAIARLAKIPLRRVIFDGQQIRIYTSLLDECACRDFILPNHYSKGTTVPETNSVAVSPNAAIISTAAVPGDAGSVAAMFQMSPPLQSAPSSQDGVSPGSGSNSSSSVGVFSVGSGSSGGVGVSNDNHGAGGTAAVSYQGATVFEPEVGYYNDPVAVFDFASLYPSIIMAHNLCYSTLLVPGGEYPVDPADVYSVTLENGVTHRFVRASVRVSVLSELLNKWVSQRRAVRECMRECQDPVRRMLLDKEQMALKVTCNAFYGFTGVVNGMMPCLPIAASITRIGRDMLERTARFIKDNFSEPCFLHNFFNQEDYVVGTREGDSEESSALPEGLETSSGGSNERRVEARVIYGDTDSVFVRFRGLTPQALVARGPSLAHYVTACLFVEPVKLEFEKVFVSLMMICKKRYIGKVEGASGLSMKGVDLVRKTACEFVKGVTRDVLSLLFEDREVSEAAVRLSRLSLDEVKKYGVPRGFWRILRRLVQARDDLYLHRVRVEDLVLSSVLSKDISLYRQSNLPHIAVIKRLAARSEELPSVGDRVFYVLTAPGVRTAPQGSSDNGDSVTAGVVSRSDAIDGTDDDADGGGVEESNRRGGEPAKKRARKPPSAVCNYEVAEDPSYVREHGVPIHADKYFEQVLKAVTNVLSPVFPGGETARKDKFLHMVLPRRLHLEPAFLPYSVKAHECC
# assay-explanation: Inhibition of human cytomegalovirus DNA polymerase (95 uL) activity in a solution containing […] HEPES (pH 7.5), incubation for 12 minutes at 26 degrees C
Numbers only, in nM.

Guide cases for IC50, answers given:
Cn1cc(C(=O)NCc2ccc(Cl)cc2)c(=O)c2cc(CCO)sc21 : 4000
O=C(NCc1ccc(Cl)cc1)c1cnc2ccc(CCCO)cc2c1O : 400
CCN(CC)CCn1cc(C(=O)NCc2ccc(Cl)cc2)c(=O)c2cc(C#CCO)sc21 : 1800

Please state, for each entry, its recorded IC50.
1. O=C(NCc1ccc(Cl)cc1)c1cn(CCO)c2sc(CCCO)cc2c1=O
2. Cn1cc(C(=O)NCc2ccc(Cl)cc2)c(=O)c2cc(CCCCO)sc21

[A]
750
430

====

# System: Vero
# assay-explanation: Antiviral activity against herpes simplex virus type 1 KOS (AraAr13) plaque forming unit grown on Human foreskin fibroblast cells upon incubation for 1 hour at 37 degrees C with compound dissolved in DMSO
# Format: functional, cell-based
# test-parameters: Chlorocebus sabaeus
readout-label: IC50 (nM)
Numbers only, in nM.

[Q] # assay system Vero: give IC50 of `Cn1cc(C(=O)NCc2ccc(Cl)cc2)c(=O)c2cc(CN3CCOCC3)sc21`
[A] 2100

====

# Tested on: Vero
# assay-explanation: Antiviral activity against herpes simplex virus type 1 KOS (PFAr2) plaque forming unit grown on Human foreskin fibroblast cells upon incubation for 1 hour at 37 degrees C with compound dissolved in DMSO
# Assay type: functional, cell-based
# test-parameters: Chlorocebus sabaeus
readout-label: pIC50
One number for each entry, as −log10 of the molar value.

[Q] Return reported pIC50. Input compound: `Cn1cc(C(=O)NCc2ccc(Cl)cc2)c(=O)c2cc(CN3CCOCC3)sc21`
[A] 5.60

====

# study-target: DNA polymerase alpha catalytic subunit (Homo sapiens, UniProt P09884)
# Sequence (P09884 whole entry): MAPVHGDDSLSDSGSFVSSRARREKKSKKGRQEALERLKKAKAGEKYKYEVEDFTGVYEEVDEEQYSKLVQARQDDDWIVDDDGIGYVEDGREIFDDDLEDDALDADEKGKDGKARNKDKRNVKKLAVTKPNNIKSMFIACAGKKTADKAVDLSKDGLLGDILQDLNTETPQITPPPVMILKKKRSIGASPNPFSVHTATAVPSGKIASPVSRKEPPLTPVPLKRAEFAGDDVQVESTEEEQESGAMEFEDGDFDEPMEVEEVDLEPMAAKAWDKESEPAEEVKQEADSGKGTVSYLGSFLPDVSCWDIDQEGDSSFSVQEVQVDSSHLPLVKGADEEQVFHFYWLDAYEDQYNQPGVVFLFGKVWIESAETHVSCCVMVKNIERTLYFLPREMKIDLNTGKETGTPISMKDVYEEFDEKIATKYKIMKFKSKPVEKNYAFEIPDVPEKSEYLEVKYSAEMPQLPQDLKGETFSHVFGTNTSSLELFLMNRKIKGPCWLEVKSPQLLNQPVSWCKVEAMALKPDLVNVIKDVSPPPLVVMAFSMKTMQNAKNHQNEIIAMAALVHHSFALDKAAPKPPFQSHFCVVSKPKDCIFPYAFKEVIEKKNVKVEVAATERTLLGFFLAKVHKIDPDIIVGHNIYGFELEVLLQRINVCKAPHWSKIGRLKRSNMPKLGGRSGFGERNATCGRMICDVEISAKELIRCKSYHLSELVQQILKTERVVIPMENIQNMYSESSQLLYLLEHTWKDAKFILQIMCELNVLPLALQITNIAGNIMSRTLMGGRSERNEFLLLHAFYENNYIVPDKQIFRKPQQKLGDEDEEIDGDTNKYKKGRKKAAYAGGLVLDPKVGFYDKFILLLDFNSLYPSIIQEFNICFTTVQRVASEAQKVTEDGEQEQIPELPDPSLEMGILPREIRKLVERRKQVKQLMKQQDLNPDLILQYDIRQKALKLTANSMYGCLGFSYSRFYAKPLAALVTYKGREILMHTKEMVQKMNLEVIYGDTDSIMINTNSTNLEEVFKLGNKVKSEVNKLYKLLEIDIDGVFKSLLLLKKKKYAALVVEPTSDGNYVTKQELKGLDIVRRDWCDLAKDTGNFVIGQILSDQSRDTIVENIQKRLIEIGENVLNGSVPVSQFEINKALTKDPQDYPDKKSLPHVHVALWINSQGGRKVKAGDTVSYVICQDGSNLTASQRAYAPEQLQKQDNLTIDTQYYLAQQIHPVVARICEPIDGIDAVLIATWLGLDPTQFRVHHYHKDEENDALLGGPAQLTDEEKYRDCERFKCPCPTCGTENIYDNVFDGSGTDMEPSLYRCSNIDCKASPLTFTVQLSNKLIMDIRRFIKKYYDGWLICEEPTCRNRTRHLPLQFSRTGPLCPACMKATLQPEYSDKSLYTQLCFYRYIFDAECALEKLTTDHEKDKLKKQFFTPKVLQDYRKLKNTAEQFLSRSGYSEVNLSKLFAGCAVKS
# assay-explanation: Inhibition of human alpha DNA polymerase (95 uL) activity in a solution containg […] HEPES (pH 7.5) upon incubation for 12 minutes at 26 degrees C with the compound dissolved in DMSO
readout-label: IC50

O=C(NCc1ccc(Cl)cc1)c1cnc2ccc(CCCO)cc2c1O : > 40 µM
Cn1cc(C(=O)NCc2ccc(Cl)cc2)c(=O)c2cc(CN3CCOCC3)ccc21 : > 40 µM
Cn1cc(C(=O)NCc2ccc(Cl)cc2)c(=O)c2cc(CN3CCOCC3)sc21 : > 40 µM
Cn1cc(C(=O)NCc2ccc(Cl)cc2)c(=O)c2cc(CCCO)sc21 : > 40 µM
Cc1cn([C@H]2C[C@H](N=[N+]=[N-])[C@@H](CO[P@](=O)(O)O[P@](=O)(O)OP(=O)(O)O)O2)c(=O)[nH]c1=O [ZIDOVUDINE TRIPHOSPHATE] : 13.4 µM

[Q] Return reported IC50. Input molecule: `O=C(O)P(=O)(O)O`
[A] > 20 µM

====

# Tested on: HFF
# assay-explanation: Antiviral activity against human cytomegalovirus Ad169 (WT) plaque forming unit grown on Human foreskin fibroblast cells upon incubation for 1 hour at 37 degrees C with compound dissolved in DMSO
# Assay type: functional, cell-based, Human betaherpesvirus 5
readout-label: IC50 (µM)
One number for each entry, in µM.

[Q] Return reported IC50. Input compound: `Cn1cc(C(=O)NCc2ccc(Cl)cc2)c(=O)c2cc(CN3CCOCC3)sc21`
[A] 1.5

====

# Tested on: Vero
# assay-explanation: cells
# test-parameters: Chlorocebus sabaeus, 1 h
readout-label: pIC50
Numbers only, as −log10 of the molar value.

[Q] Return reported pIC50. Input compound: `Nc1nc2c(ncn2COCCO)c(=O)[nH]1`
[A] 5.62

====

# System: Vero
# assay-explanation: Antiviral activity against herpes simplex virus type 1 Patton (WT) plaque forming unit grown on Human foreskin fibroblast cells upon incubation for 1 hour at 37 degrees C with compound dissolved in DMSO
# Assay type: functional, cell-based
# test-parameters: Chlorocebus sabaeus
readout-label: pIC50
Answers are plain numbers, as −log10 of the molar value.

[Q] Return reported pIC50. Input compound: `Cn1cc(C(=O)NCc2ccc(Cl)cc2)c(=O)c2cc(CN3CCOCC3)sc21`
[A] 5.27

====

# study-target: DNA polymerase catalytic subunit (Herpes simplex virus (type 1 / strain 17), UniProt P04293)
# Sequence (P04293 whole entry): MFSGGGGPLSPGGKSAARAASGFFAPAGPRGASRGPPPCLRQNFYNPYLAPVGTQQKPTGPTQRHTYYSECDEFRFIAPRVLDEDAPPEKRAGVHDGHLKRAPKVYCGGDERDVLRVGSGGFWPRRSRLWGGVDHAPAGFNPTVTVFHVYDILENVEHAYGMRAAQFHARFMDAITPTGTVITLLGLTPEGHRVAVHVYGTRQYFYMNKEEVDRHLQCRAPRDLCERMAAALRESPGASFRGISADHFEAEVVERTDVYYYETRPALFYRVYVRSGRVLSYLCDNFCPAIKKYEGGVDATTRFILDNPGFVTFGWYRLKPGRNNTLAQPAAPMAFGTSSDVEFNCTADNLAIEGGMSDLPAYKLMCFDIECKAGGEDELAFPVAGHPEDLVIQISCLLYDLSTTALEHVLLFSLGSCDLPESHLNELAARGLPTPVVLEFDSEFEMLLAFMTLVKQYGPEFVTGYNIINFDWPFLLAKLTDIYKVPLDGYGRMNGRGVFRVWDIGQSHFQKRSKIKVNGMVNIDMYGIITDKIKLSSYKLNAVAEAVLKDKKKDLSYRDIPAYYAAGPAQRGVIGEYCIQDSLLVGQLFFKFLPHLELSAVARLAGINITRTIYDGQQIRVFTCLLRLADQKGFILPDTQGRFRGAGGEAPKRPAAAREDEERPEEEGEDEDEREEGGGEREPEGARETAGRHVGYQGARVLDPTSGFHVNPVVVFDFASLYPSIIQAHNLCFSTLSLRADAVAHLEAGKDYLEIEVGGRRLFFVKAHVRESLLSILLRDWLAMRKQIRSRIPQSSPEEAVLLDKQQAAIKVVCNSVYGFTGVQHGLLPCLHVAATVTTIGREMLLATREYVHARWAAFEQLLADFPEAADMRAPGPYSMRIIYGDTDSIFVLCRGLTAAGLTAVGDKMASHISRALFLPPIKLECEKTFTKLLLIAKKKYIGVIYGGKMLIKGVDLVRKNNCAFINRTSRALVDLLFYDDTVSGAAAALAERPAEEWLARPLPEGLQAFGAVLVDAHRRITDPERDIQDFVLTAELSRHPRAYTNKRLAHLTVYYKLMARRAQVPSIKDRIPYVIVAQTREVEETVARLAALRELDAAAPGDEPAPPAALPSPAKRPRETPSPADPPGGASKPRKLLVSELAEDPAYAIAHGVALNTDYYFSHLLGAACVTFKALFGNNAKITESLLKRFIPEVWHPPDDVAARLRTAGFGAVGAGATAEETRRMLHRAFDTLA
# assay-explanation: Inhibition of herpes simplex virus type 1 DNA polymerase (95 uL) activity in a solution containing […] HEPES (pH 7.5), incubation for 12 minutes at 26 degrees C
readout-label: IC50 (nM)
One number for each entry, in nM.

Guide cases for IC50, answers given:
Cn1cc(C(=O)NCc2ccc(Cl)cc2)c(=O)c2cc(CCCO)sc21 : 500
Cn1cc(C(=O)NCc2ccc(Cl)cc2)c(=O)c2cc(CN3CCOCC3)ccc21 : 600

// next item, IC50 requested
[Q] Return reported IC50. Input compound: `O=C(NCc1ccc(Cl)cc1)c1cnc2ccc(CCCO)cc2c1O`
[A] 300

====

# study-target: DNA polymerase catalytic subunit (Human cytomegalovirus (strain AD169) (HHV-5) (Human herpesvirus 5))
# assay-explanation: Inhibition of human cytomegalovirus DNA polymerase (95 uL) activity in a solution containing […] HEPES (pH 7.5), incubation for 12 minutes at 26 degrees C
readout-label: pIC50
One number for each entry, as −log10 of the molar value.

Cn1cc(C(=O)NCc2ccc(Cl)cc2)c(=O)c2cc(CCCCCO)sc21 : 5.01

Please state, for each entry, its recorded pIC50.
1. O=C(NCc1ccc(Cl)cc1)c1cnc2sc(C#CCO)cc2c1O
2. Cn1cc(C(=O)NCc2ccc(Cl)cc2)c(=O)c2cc(C#CCCO)sc21
3. O=C(NCc1ccc(Cl)cc1)c1cn(CCO)c2sc(C#CCO)cc2c1=O
4. Cn1cc(C(=O)NCc2ccc(Cl)cc2)c(=O)c2cc(C#CCCCO)sc21
5. Cn1cc(C(=O)NCc2ccc(Cl)cc2)c(=O)c2cc(CN3CCOCC3)ccc21

[A]
[5.57, 5.02, 5.96, 4.66, 6.15]
